Where these numbers come from: PubChem BioAssay (NCI)

- Tested on: HS 578T breast
- PROTOCOL NOTES: NCI-60 one-dose screen, 48 h
- MEASUREMENT CONTEXT: 10 µM unless noted
This is part of a sample that, as a whole, favours compounds with a hit. Of some 83,000 tested, about 20% had one in any assay. Activity calls are given as the source filed them. The calls were made as follows: active = growth percent below 10; inactive = the rest.
Pick one: 1 (yes) = active, 0 (no) = inactive

Before answering, review these 8 worked examples.
- COMPOUND: "N#Cc1c(N)n(CCNC(=O)c2ccccc2)c2nc3ccccc3nc12"
  ANSWER LABEL: "0 (no)"
- COMPOUND: "NC(CSC(c1ccccc1)(c1ccccc1)c1ccc(Cl)cc1)C(=O)O (centres undefined)"
  ANSWER LABEL: "1 (yes)"
- COMPOUND: "Cc1ccc2c(C(C[N+](=O)[O-])c3ccccc3F)c(-c3ccccc3)[nH]c2c1 (centres undefined)"
  ANSWER LABEL: "0 (no)"
- COMPOUND: "O=C1Nc2cc(-c3ccc(O)cc3)ccc2/C1=C/c1ccc[nH]1"
  ANSWER LABEL: "0 (no)"
- COMPOUND: "Cc1nn(-c2cc(=O)[nH]c3ccccc23)c(N)c1C#N"
  ANSWER LABEL: "0 (no)"
- COMPOUND: "CCOC(=O)n1cc(-c2nonc2-c2cn(C)c3ncccc23)c2cc(F)ccc21"
  ANSWER LABEL: "0 (no)"
- COMPOUND: "CCCOc1cc2ccccc2cc1C(=O)Nc1nc(N)c2c(ccc3nccc32)[nH]1"
  ANSWER LABEL: "1 (yes)"
- COMPOUND: "CC[C@]1(O)C[C@@H]2CN(CCc3c([nH]c4ccccc34)[C@@](C(=O)OC)(c3cc4c(cc3OC)N(C)[C@H]3[C@@](O)(C(N)=O)[C@H](O)[C@]5(CC)[C@@H]6C[C@@H]6CN6CC[C@]43[C@@H]65)C2)C1"
  ANSWER LABEL: "0 (no)"

INPUT: Lab log entry: Clc1ccc2c(NCCNc3nc(N4CCCCC4)nc4ccccc34)ccnc2c1 — outcome as called in the assay?
OUTPUT: 0 (no)

INPUT: Lab log entry: COc1cccc(-c2nn(C(C)(C)C)cc2-c2ccnc(NCCCNS(=O)(=O)c3cccc4ccccc34)c2)c1 — outcome as called in the assay?
OUTPUT: 0 (no)

INPUT: Lab log entry: CCOC(=O)c1csc(NC(=O)COc2cccc(/C=C3\CSc4ccccc4C3=O)c2)n1 — outcome as called in the assay?
OUTPUT: 1 (yes)

INPUT: Lab log entry: CN(C)C(=S)N=Nc1c(O)[nH]c2ccccc12 — outcome as called in the assay?
OUTPUT: 0 (no)

INPUT: Lab log entry: c1csc(C2=NN3C(C2)c2ccccc2OC3c2ccncc2)c1 (centres undefined) — outcome as called in the assay?
OUTPUT: 0 (no)

INPUT: Lab log entry: O=C1C=C(OCC=C(Cl)Cl)C(=O)c2ccccc21 — outcome as called in the assay?
OUTPUT: 0 (no)
